- System: biotinyl-Leu-oxazolone
- ASSAY SUMMARY: self-aminoacylation, catalytic enhancement (BLO) (fold over background); higher = more active; k-Seq, kA / k0A0; sequences stand for … in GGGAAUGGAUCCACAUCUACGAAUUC…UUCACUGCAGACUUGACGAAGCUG
Fewer inactive variants are shown than the library holds.
QUANTITY NAME: self-aminoacylation
// no unit, no text: just the number

Past entries and their recorded results:
AUUCACCUAGGUCAUCAGAUG [Fam2.2 aminoacylation ribozyme variant]: 0.928
AAAUUUGCUAAUAGGCGCAAG [Fam3.1 aminoacylation ribozyme variant]: 1.51

Entry CGACACUUCCAGCAAUCGGUC [Fam1B.1 aminoacylation ribozyme variant] has what self-aminoacylation?
1.19

Entry CCCCACUUCAAGUAAUCGGUC [Fam1B.1 aminoacylation ribozyme variant] has what self-aminoacylation?
2.08

* * *

- System: biotinyl-Met-oxazolone
- ASSAY SUMMARY: self-aminoacylation, catalytic enhancement (BMO) (fold over background); higher = more active; k-Seq, kA / k0A0; sequences stand for … in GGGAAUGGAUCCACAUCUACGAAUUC…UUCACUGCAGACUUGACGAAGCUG
Fewer inactive variants are shown than the library holds.
Classes by self-aminoacylation: bin 0 = under 0.9, bin 1 = from 0.9 up to 4, bin 2 = 4 and over

Please classify: CUACUUCUAACAAUCGGACUG [Fam1A.1 aminoacylation ribozyme variant]
bin 0

Please classify: AGGUUUGCUAAUAGUCGCGAG [Fam3.1 aminoacylation ribozyme variant]
bin 1

Please classify: AAGUUUGCUAAUAGACGCAUG [Fam3.1 aminoacylation ribozyme variant]
bin 0

Please classify: AUUCACCUAGGUCAUCAGAUG [Fam2.2 aminoacylation ribozyme variant]
bin 0

Please classify: AACUUUGCUAGUAGUCGCAAG [Fam3.1 aminoacylation ribozyme variant]
bin 1

* * *

- Tested on: biotinyl-Met-oxazolone
- ASSAY SUMMARY: self-aminoacylation, catalytic enhancement (BMO) (fold over background); higher = more active; k-Seq, kA / k0A0; sequences stand for … in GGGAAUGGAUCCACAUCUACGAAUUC…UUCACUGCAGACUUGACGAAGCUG
Fewer inactive variants are shown than the library holds.
So basically: self-aminoacylation at 3 or higher? That is met. Lower than 3? That is not met.

Solved cases (10 shown):
AAGUUUGCUAAUAGGCGCAGG [Fam3.1 aminoacylation ribozyme variant]: not met
AUUACCCUGGUCGUCGGGUGA [Fam2.1 aminoacylation ribozyme variant]: met
GUUCACCUUGGUCAUCGGGUG [Fam2.2 aminoacylation ribozyme variant]: met
AUUCACCUAAGUCAUCGGGUU [Fam2.2 aminoacylation ribozyme variant]: not met
AUAACCCUGGUCAUCGAGUGC [Fam2.1 aminoacylation ribozyme variant]: not met
AAGUUUGCUAAUAGUCAUAAG [Fam3.1 aminoacylation ribozyme variant]: not met
AUUCACCUAUGUCAUCGGGUA [Fam2.2 aminoacylation ribozyme variant]: not met
AGGUUUGCUAAUAGUAGCAAG [Fam3.1 aminoacylation ribozyme variant]: not met
AAGUUUGCUAAUUCUCGCAAG [Fam3.1 aminoacylation ribozyme variant]: not met
CUUCCCCUGGUCAUCGAGUGA [Fam2.1 aminoacylation ribozyme variant]: met

Then this sequence:
Would you say GCACACUUCAAGCAAUCGGUU [Fam1B.1 aminoacylation ribozyme variant] shows self-aminoacylation at minimum 3?
not met

* * *

- Test system: biotinyl-Leu-oxazolone
- ASSAY SUMMARY: self-aminoacylation, catalytic enhancement (BLO) (fold over background); higher = more active; k-Seq, kA / k0A0; sequences stand for … in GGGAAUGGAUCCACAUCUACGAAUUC…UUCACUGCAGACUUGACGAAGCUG
This sample holds only a part of the variants without activity.
Classes by self-aminoacylation: L (below 1), M (1 to below 2), H (2 or more)

Solved cases (5 shown):
AUUACCCUGGCCAUCGAGUUA [Fam2.1 aminoacylation ribozyme variant]: M
AUUAACCUAGGUCAUCGGGAG [Fam2.2 aminoacylation ribozyme variant]: M
CCACACUUCAAGCAGUCGGUC [Fam1B.1 aminoacylation ribozyme variant]: L
CGACUUAAAACAAUCGGUCUG [Fam1A.1 aminoacylation ribozyme variant]: M
AUGCACCUAGGUCAUUGGGUG [Fam2.2 aminoacylation ribozyme variant]: H

Please classify: AUUCACAUAGGUCAUCGGCUG [Fam2.2 aminoacylation ribozyme variant]
M

Please classify: CGACUUCAAUCAAUCGGUCUG [Fam1A.1 aminoacylation ribozyme variant]
H

Please classify: CUACCUCAAACAAUAGGUCUG [Fam1A.1 aminoacylation ribozyme variant]
L

Please classify: CCACACUUCCAGCAAUCGGGC [Fam1B.1 aminoacylation ribozyme variant]
M

Please classify: AUUCACUUAGGUCAUCGGAUG [Fam2.2 aminoacylation ribozyme variant]
L

Please classify: CUUCUUCAAACAAUCGGUCGG [Fam1A.1 aminoacylation ribozyme variant]
M

Please classify: AUUCACCUAGGUCAUCGGGGC [Fam2.2 aminoacylation ribozyme variant]
H

* * *

- Tested on: biotinyl-Leu-oxazolone
- ASSAY SUMMARY: self-aminoacylation, catalytic enhancement (BLO) (fold over background); higher = more active; k-Seq, kA / k0A0; sequences stand for … in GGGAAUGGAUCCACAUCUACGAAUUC…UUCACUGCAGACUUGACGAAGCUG
Fewer inactive variants are shown than the library holds.
QUANTITY NAME: self-aminoacylation
// no unit, no text: just the number

ACACACUUCAAGCAAUGGGUC [Fam1B.1 aminoacylation ribozyme variant]: 0.794

Requested read-out self-aminoacylation, target or system biotinyl-Leu-oxazolone, entry AUUCACCGGGGUCAUCGGGUG [Fam2.2 aminoacylation ribozyme variant]
10.7

Requested read-out self-aminoacylation, target or system biotinyl-Leu-oxazolone, entry CUACUUAAAACAAUCGGUUUG [Fam1A.1 aminoacylation ribozyme variant]
0.621

Requested read-out self-aminoacylation, target or system biotinyl-Leu-oxazolone, entry CCACACAUCAAGAAAUCGGUC [Fam1B.1 aminoacylation ribozyme variant]
0.792

Requested read-out self-aminoacylation, target or system biotinyl-Leu-oxazolone, entry AUUCACCUCGGUCAUCUGGUG [Fam2.2 aminoacylation ribozyme variant]
4.16

Requested read-out self-aminoacylation, target or system biotinyl-Leu-oxazolone, entry CUAUUUCAAACAAUCGGUCUA [Fam1A.1 aminoacylation ribozyme variant]
0.571

Requested read-out self-aminoacylation, target or system biotinyl-Leu-oxazolone, entry CCACACUUCAAACAUUCGGUC [Fam1B.1 aminoacylation ribozyme variant]
1.45

Requested read-out self-aminoacylation, target or system biotinyl-Leu-oxazolone, entry AUACACCUAGGUCAUCUGGUG [Fam2.2 aminoacylation ribozyme variant]
1.68

* * *

- System: biotinyl-Phe-oxazolone
- ASSAY SUMMARY: self-aminoacylation, catalytic enhancement (BFO) (fold over background); higher = more active; k-Seq, kA / k0A0; sequences stand for … in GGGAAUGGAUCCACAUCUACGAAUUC…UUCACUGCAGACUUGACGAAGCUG
Fewer inactive variants are shown than the library holds.
Listing of recorded self-aminoacylation by entry.
// no unit, no text: just the number

Past entries and their recorded results:
CUAUUUCAAACAAUCCGUCUG [Fam1A.1 aminoacylation ribozyme variant]: 0.946
CUUCACCUAGGUCAUCGGGUA [Fam2.2 aminoacylation ribozyme variant]: 23.4
AUUACCCUGGUCAUAGAGAGA [Fam2.1 aminoacylation ribozyme variant]: 0.605
CCACACUCCAAGGAAUCGGUC [Fam1B.1 aminoacylation ribozyme variant]: 1.46
AAGUUUGCAAAUAGUCGCAAU [Fam3.1 aminoacylation ribozyme variant]: 2.03
AAGAUUGCUAAUAGUCGCAUG [Fam3.1 aminoacylation ribozyme variant]: 1.36
CUAUUUCAAACAAUCGGUCUA [Fam1A.1 aminoacylation ribozyme variant]: 2.12
AUUACCCUGGUCAUCGAGGGC [Fam2.1 aminoacylation ribozyme variant]: 1.09

Now for a further sequence.
Requested read-out self-aminoacylation, target or system biotinyl-Phe-oxazolone, entry AUUGACCCAGGUCAUCGGGUG [Fam2.2 aminoacylation ribozyme variant]
34.9

* * *

- System: biotinyl-Ile-oxazolone
- ASSAY SUMMARY: self-aminoacylation, catalytic enhancement (BIO) (fold over background); higher = more active; k-Seq, kA / k0A0; sequences stand for … in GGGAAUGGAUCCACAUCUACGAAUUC…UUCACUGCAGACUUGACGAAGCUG
This sample holds only a part of the variants without activity.
QUANTITY NAME: self-aminoacylation
// no unit, no text: just the number

Past entries and their recorded results:
CCAGACUCCAAGCAAUCGGUC [Fam1B.1 aminoacylation ribozyme variant]: 1.22
AUUCAUCUAGGUCAUAGGGUG [Fam2.2 aminoacylation ribozyme variant]: 2
CUACUUCAAACUAUGGGUCUG [Fam1A.1 aminoacylation ribozyme variant]: 0.917

Requested read-out self-aminoacylation, target or system biotinyl-Ile-oxazolone, entry CCAAACUUGAAGCAAUCGGUC [Fam1B.1 aminoacylation ribozyme variant]
0.898

Hey, just so you know, these numbers are from the supplement of paper PMC9233669.
